Experiment description: Unbound fraction in rat plasma at 5 uM incubated for 6 hrs by equilibrium dialysis based LC-MS/MS analysis
Type: ADME, cell-free
Experimental endpoint: Fu

Cc1cc(Oc2ccnn2C)cc(C(=O)Nc2nc(C)cs2)n1
0.219
Cc1cccc(NC(=O)c2cc(Oc3cnn(C)c3C(F)(F)F)cc(C)n2)n1
Not_determined(Unstable)
Cc1cccc(NC(=O)c2cc(Oc3ccnn3C)cc(C)n2)n1
Not_determined(Unstable)
Cc1cc(Oc2cnn(C)c2C(F)(F)F)cc(C(=O)Nc2ccc(F)cn2)n1
Not_determined(Unstable)
Cc1cc(Oc2cnn(C)c2C(F)(F)F)cc(C(=O)Nc2nc(C)cs2)n1
Not_determined(Unstable)

// switching to the query molecule
Any idea what its Fu is? The molecule is "Cc1cccc(NC(=O)c2cc(Oc3cc(C)nn3C)cc(C)n2)n1" Not_determined(Unstable)

====

Experiment description: Ratio of unbound drug concentration in Sprague-Dawley rat brain to plasma at 0.2 mg/kg, iv measured after 0.25 hrs by LC-MS/MS analysis
Format: ADME, organism-based
Experimental endpoint: K(p,uu,brain)

Example entries and their recorded answers appear below.
Cc1cc(Oc2cnn(C)c2C(F)(F)F)cc(C(=O)Nc2ccc(F)cn2)n1
Not_determined(Unstable)
Cc1cc(Oc2cnn(C)c2C(F)(F)F)cc(C(=O)Nc2nc(C)cs2)n1
Not_determined(Unstable)
Cc1cccc(NC(=O)c2cc(Oc3cc(C)nn3C)cc(C)n2)n1
Not_determined(Unstable)
Cc1cccc(NC(=O)c2cc(Oc3ccnn3C)cc(C)n2)n1
Not_determined(Unstable)

// switching to the query compound
Any idea what its K(p,uu,brain) is? The compound is "Cc1cccc(NC(=O)c2cc(Oc3cnn(C)c3C(F)(F)F)cc(C)n2)n1" Not_determined(Unstable)
